The measurements presented in this section are drawn from patent US20260042764A1.

Listing of recorded IC50 by entry.
study-target: Avi-KRAS WT (2-169) GTP/RAF1 RBD-3xFLAG (51-131) (Homo sapiens, UniProt P01116)
Construct: Avi-KRAS WT (2-169)
Sequence (P01116 2-169 isoform P01116-2): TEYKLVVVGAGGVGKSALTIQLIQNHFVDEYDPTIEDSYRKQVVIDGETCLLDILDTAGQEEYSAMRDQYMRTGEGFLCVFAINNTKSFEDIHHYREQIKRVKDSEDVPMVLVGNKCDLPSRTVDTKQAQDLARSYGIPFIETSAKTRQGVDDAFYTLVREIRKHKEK
experimental-protocol: Raf1-KRAS WT-GTP disruption HTRF assay (Biological Example 3)
Format: binding
condition-info: KRAS WT, GTP-loaded

Request: Give the measured IC50 for CCN(c1nc(OC[C@@]23CCCN2C[C@H](F)C3)nc2c(F)c(-c3ccc(F)c4sc(N)c(C#N)c34)c(C(F)(F)F)cc12)[C@H]1CC(=O)N2CCC[C@@H]12 (atropisomer, axis not shown; (aS)) [Compound 697]
Result: ≤ 100 nM

Request: Give the measured IC50 for CCN(c1nc(OC[C@@]23CCCN2C[C@H](F)C3)nc2c(F)c(-c3ccc(F)c4sc(N)c(C#N)c34)c(C(F)(F)F)cc12)[C@H]1CCN(C(=O)O[C@@H]2CCOC2)[C@@H]1C (atropisomer, axis not shown) [Compound 824]
Result: 100 to 1000 nM

Request: Give the measured IC50 for CCC(=O)N1CC[C@@H](N(C)c2nc(OC[C@@]34CCCN3C[C@H](F)C4)nc3c(F)c(-c4ccc(F)c5sc(N)c(C#N)c45)c(C(F)(F)F)cc23)[C@H]1C (atropisomer, axis not shown) [Compound 335]
Result: 100 to 1000 nM

Request: Give the measured IC50 for CCN(c1nc(OC[C@@]23CCCN2C[C@H](F)C3)nc2c(F)c(-c3ccc(F)c4sc(N)c(C#N)c34)c(C(F)(F)F)cc12)[C@H]1C[C@H](COC)N(C(=O)[C@H]2CCO2)C1 (atropisomer, axis not shown) [Compound 840]
Result: 100 to 1000 nM

###

study-target: Avi-KRAS G12R (1-169) GppNHp/RAF1 RBD-3xFLAG (52-151) (Homo sapiens, UniProt P01116, G12R)
Construct: Avi-KRAS G12R (1-169)
Sequence (P01116 1-169 isoform P01116-2 G12R): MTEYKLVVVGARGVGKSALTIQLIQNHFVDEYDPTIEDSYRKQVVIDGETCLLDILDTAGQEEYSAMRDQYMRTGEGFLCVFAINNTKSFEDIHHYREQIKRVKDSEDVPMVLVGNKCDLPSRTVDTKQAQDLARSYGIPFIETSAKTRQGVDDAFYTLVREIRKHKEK
experimental-protocol: Raf1-KRAS G12R-GppNHP disruption HTRF assay (Biological Example 1)
Assay type: binding
condition-info: KRAS G12R, GppNHp-loaded; class symbols
pIC50: −log10 of the molar value.
readout-type: pIC50

Illustrative cases are given below, each with its answer.
compound	pIC50
CCC(=O)N1C[C@@H](N(CC)c2nc(OC[C@@]34CCCN3C[C@H](F)C4)nc3c(F)c(-c4ccc(F)c5sc(N)c(C#N)c45)c(C(F)(F)F)cc23)C[C@@H]1COC (atropisomer, axis not shown) [Compound 648]	> 7.00
CCN(c1nc(OC[C@@]23CCCN2C[C@H](F)C3)nc2c(F)c(-c3ccc(F)c4sc(N)c(C#N)c34)c(C(F)(F)F)cc12)[C@@H]1C[C@H](C)N(C(=O)C2CC2)C1 (atropisomer, axis not shown) [Compound 588]	6.00 to 7.00
[2H][C@]1(N(CC)c2nc(OC[C@@]34CCCN3C[C@H](F)C4)nc3c(F)c(-c4ccc(F)c5sc(N)c(C#N)c45)c(C(F)(F)F)cc23)CCN(C(=O)OC)C1 (atropisomer, axis not shown) [Compound 800]	> 7.00

--- query ---
Request: Give the measured pIC50 for CCN(c1nc(OC[C@@]23CCCN2C[C@H](F)C3)nc2c(F)c(-c3ccc(F)c4sc(N)c(C#N)c34)c(C(F)(F)F)cc12)[C@H]1CCN(C(=O)N2C[C@@H](F)[C@@H](F)C2)C1 (atropisomer, axis not shown) [Compound 609]
Result: > 7.00

###

study-target: Avi-KRAS G12V (1-169) GppNHp/RAF1 RBD-3xFLAG (52-151) (Homo sapiens, UniProt P01116, G12V)
Construct: Avi-KRAS G12V (1-169)
Sequence (P01116 1-169 isoform P01116-2 G12V): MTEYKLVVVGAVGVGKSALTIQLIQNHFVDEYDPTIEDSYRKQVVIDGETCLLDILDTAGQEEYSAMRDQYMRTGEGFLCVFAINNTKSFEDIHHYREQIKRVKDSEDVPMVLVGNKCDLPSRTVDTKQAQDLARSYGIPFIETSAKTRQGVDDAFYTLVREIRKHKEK
experimental-protocol: Raf1-KRAS G12V-GppNHP disruption HTRF assay (Biological Example 1)
Type: binding
condition-info: KRAS G12V, GppNHp-loaded; class symbols
readout-type: IC50

Illustrative cases are given below, each with its answer.
molecule	study-target	IC50
CCN(c1nc(OC[C@@]23CCCN2C[C@H](F)C3)nc2c(F)c(-c3ccc(F)c4sc(N)c(C#N)c34)c(C(F)(F)F)cc12)[C@H]1C[C@H](C)N(C(=O)[C@@H](C)OC)C1 (atropisomer, axis not shown)	Avi-KRAS G12V (1-169) GppNHp/RAF1 RBD-3xFLAG (52-151) (Homo sapiens, UniProt P01116, G12V)	100 to 1000 nM
CCN(c1nc(OCC23CCCN2CC(F)C3)nc2c(F)c(-c3ccc(F)c4sc(N)c(C#N)c34)c(C(F)(F)F)cc12)C1CCN(C(=O)c2cccnc2)C1 (stereo not drawn)	Avi-KRAS G12V (1-169) GppNHp/RAF1 RBD-3xFLAG (52-151) (Homo sapiens, UniProt P01116, G12V)	< 100 nM

Request: Give the measured IC50 for CCN(c1nc(OC[C@@]23CCCN2C[C@H](F)C3)nc2c(F)c(-c3ccc(F)c4sc(N)c(C#N)c34)c(C(F)(F)F)cc12)[C@H]1CCN(C(=O)[C@@H]2C[C@H]2C)C1 (atropisomer, axis not shown)
Result: < 100 nM

###

study-target: Avi-KRAS G12C (2-169) GTP/RAF1 RBD-3xFLAG (51-131) (Homo sapiens, UniProt P01116, G12C)
Construct: Avi-KRAS G12C (2-169)
Sequence (P01116 2-169 isoform P01116-2 G12C): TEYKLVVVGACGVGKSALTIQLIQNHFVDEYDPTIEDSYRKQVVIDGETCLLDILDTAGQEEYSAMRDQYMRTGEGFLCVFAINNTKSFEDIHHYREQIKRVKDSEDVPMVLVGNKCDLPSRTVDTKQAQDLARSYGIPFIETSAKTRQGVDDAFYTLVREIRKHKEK
experimental-protocol: Raf1-KRAS G12C-GTP disruption HTRF assay (Biological Example 3)
Type: binding
condition-info: KRAS G12C, GTP-loaded
Protocol: Biological Example 3: Disrupting RAS-Effector Binding HTRF Assay A protein:protein interaction (PPI) Homogeneous Time Resolved Fluorescence (HTRF) assay was used to determine the effectiveness of compounds in disrupting KRAS protein and effector (RAF1) binding. […] Plates were analyzed on an Envision plate reader using the following setting: Excitation 320 nm, Bandwidth 75 nm; Emission 615 nm, Bandwidth 85 nm; Gain 100%; Flashes 100; Lag 60 μs. […] Data was plotted and analyzed using Prism 8. […]
readout-type: IC50

Illustrative cases are given below, each with its answer.
compound	IC50
CCN(c1nc(OC[C@@]23CCCN2C[C@H](F)C3)nc2c(F)c(-c3ccc(F)c4sc(N)c(C#N)c34)c(C(F)(F)F)cc12)[C@H]1C[C@H](C)N(C(=O)C2C[C@@H]2F)C1 (stereo partly drawn) [Compound 886]	≤ 100 nM
CCN(c1nc(OC[C@@]23CCCN2C[C@H](F)C3)nc2c(F)c(-c3ccc(F)c4sc(N)c(C#N)c34)c(C(F)(F)F)cc12)C1CCN(C(=O)C2CC2)C1 (stereo partly drawn) [Compound 903]	≤ 100 nM

Request: Give the measured IC50 for CCN(c1nc(OC[C@@]23CCCN2C[C@H](F)C3)nc2c(F)c(-c3ccc(F)c4sc(N)c(C#N)c34)c(C(F)(F)F)cc12)[C@H]1CCN(C(=O)[C@H]2CCO2)C1 (atropisomer, axis not shown) [Compound 577]
Result: ≤ 100 nM

###

study-target: Avi-KRAS G12R (1-169) GppNHp/RAF1 RBD-3xFLAG (52-151) (Homo sapiens, UniProt P01116, G12R)
Construct: Avi-KRAS G12R (1-169)
experimental-protocol: Raf1-KRAS G12R-GppNHP disruption HTRF assay (Biological Example 1)
Type: binding
condition-info: KRAS G12R, GppNHp-loaded; Table 11
Listing of recorded IC50 by entry.

Illustrative cases are given below, each with its answer.
compound	IC50
N#Cc1c(N)sc2c(F)ccc(-c3c(C(F)(F)F)cc4c(N5CC[C@@H]5CO)nc(OC[C@@]56CCCN5C[C@H](F)C6)nc4c3F)c12	100 to 1000 nM
N#Cc1c(N)sc2c(F)ccc(-c3c(C(F)(F)F)cc4c(N5CCCC6(CC(O)C6)C5)nc(OC[C@@]56CCCN5C[C@H](F)C6)nc4c3F)c12 (stereo partly drawn)	1000 to 10000 nM

--- query ---
Request: Give the measured IC50 for C[C@H]1CN(c2nc(OC[C@@]34CCCN3C[C@H](F)C4)nc3c(F)c(-c4ccc(F)c5sc(N)c(C#N)c45)c(C(F)(F)F)cc23)CCO1
Result: 100 to 1000 nM

###

study-target: Avi-KRAS G12D (1-169) GppNHp/RAF1 RBD-3xFLAG (52-151) (Homo sapiens, UniProt P01116, G12D)
Construct: Avi-KRAS G12D (1-169)
Sequence (P01116 1-169 isoform P01116-2 G12D): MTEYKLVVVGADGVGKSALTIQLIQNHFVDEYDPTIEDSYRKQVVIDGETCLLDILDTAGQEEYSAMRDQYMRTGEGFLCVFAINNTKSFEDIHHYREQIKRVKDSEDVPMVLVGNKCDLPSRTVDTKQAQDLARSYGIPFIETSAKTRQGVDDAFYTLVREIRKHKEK
experimental-protocol: Raf1-KRAS G12D-GppNHP disruption HTRF assay (Biological Example 1)
Assay type: binding
condition-info: KRAS G12D, GppNHp-loaded; class symbols
Listing of recorded IC50 by entry.

Illustrative cases are given below, each with its answer.
compound	study-target	reported-measurement
CCN(c1nc(OC[C@@]23CCCN2C[C@H](F)C3)nc2c(F)c(-c3ccc(F)c4sc(N)c(C#N)c34)c(C(F)(F)F)cc12)[C@H]1CC(=O)N(CCF)C1 (atropisomer, axis not shown)	Avi-KRAS G12D (1-169) GppNHp/RAF1 RBD-3xFLAG (52-151) (Homo sapiens, UniProt P01116, G12D)	< 0.1 µM
CCN(c1nc(OC[C@@]23CCCN2C[C@H](F)C3)nc2c(F)c(-c3ccc(F)c4sc(N)c(C#N)c34)c(C(F)(F)F)cc12)[C@H]1C[C@H](C)N(C(=O)[C@H](C)OC)C1 (atropisomer, axis not shown)	Avi-KRAS G12D (1-169) GppNHp/RAF1 RBD-3xFLAG (52-151) (Homo sapiens, UniProt P01116, G12D)	< 0.1 µM
CCN(c1nc(OC[C@@]23CCCN2C[C@H](F)C3)nc2c(F)c(-c3ccc(F)c4sc(N)c(C#N)c34)c(C(F)(F)F)cc12)[C@H]1CC(=O)N(CC(F)F)C1 (atropisomer, axis not shown)	Avi-KRAS G12D (1-169) GppNHp/RAF1 RBD-3xFLAG (52-151) (Homo sapiens, UniProt P01116, G12D)	0.1 to 1 µM

Request: Give the measured IC50 for CCN(c1nc(OC[C@@]23CCCN2C[C@H](F)C3)nc2c(F)c(-c3ccc(F)c4sc(N)c(C#N)c34)c(C(F)(F)F)cc12)[C@H]1CCN(C(=O)OC2CC(OC)C2)C1 (stereo partly shown) [Compound 792]
Result: < 0.1 µM
